Reference source for all entries: paper PMC10786891

# EXPERIMENTAL SYSTEM: T1, EsCas13d, nuclease-dead (Eubacterium siraeum, UniProt B0MS50, R295A;H300A;R849A;H854A)
# T1 sequence: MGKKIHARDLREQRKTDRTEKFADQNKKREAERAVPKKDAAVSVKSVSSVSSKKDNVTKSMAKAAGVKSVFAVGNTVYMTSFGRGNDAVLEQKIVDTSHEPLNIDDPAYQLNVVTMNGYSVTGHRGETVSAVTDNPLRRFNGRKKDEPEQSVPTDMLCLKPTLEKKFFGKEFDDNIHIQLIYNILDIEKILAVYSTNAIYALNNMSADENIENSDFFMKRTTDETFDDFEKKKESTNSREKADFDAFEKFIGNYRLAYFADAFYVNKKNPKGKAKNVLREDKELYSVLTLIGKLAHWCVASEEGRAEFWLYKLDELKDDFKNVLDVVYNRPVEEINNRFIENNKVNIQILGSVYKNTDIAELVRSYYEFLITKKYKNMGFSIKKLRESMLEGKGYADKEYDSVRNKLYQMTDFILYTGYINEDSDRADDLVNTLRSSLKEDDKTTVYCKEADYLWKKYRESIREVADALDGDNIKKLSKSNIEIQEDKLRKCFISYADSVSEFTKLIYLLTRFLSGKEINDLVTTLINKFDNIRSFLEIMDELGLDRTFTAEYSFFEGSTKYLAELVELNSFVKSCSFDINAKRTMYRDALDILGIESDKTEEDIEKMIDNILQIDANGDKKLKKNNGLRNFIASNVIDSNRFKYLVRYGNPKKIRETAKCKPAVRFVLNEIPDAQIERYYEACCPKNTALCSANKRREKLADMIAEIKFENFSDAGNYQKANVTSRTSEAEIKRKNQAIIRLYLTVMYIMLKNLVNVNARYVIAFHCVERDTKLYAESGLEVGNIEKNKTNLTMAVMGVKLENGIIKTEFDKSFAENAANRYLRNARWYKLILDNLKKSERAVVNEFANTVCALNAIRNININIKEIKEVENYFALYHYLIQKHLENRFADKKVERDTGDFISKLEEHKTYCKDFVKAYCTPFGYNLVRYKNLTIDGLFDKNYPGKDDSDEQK
# ASSAY: crRNA (strand 1, pre-loaded); Mg2+; 40 mM Tris-HCl pH 7.5, 150 mM NaCl, 6 mM MgCl2, 1 mM DTT, 0.1% Tween-20, 0.2 mg/ml BSA; 25 C; 10 min per concentration, then washed
# EXPERIMENTAL SETUP: tags: His6-TwinStrep-SUMO cleaved; N-terminal SNAP kept (SNAP-Surface 488); label: 3' end held by stalled T7 RNA polymerase
READOUT KIND: Kd (nM)
Could you give me the number in nM? Just the number is fine.

target 1 insC 3' of 8,insA 3' of 2 (mixed) RNA 1: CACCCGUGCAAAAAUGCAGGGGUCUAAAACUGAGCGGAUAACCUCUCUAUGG RNA 2: GGGAAUGGAUCCACAUCUACGAAUUCGUACCAUAGAGAGGUUAUCCCGCUCAACCGAGAUCGGAAGAGCACACGU :: 18.9

Shifting focus to the binder that follows.
INPUT: What value of Kd has been reported for the following binder? target 1 MT 5'PFS GGA 3'PFS UCC (mixed) RNA 1: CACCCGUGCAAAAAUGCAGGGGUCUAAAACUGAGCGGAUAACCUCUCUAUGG RNA 2: GGGAAUGGAUCCACAUCUACGAAUUCGGACCAUAGAGAGGUUAUCCGCUCAUCCAGAUCGGAAGAGCACACGU
OUTPUT: 23
